Biological target: B2 receptor (Homo sapiens, UniProt P30411)
Construct: expressed in transfected cells
Sequence (P30411 whole entry): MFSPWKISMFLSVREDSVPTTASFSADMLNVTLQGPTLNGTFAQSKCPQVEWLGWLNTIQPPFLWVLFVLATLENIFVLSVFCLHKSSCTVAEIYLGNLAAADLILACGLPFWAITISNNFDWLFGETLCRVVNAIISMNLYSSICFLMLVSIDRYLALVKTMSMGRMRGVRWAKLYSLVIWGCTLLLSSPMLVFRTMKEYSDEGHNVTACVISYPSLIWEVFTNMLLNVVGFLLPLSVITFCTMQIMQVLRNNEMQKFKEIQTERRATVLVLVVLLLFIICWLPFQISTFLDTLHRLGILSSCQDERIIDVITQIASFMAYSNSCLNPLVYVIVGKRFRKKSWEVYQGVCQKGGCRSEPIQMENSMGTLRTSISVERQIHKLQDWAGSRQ
Assay: Human B2 binding, human BK2 clone membranes, 3H-Bradykinin
Details: 0.3 nM 3H-Bradykinin, i.a. = inactive, read-out: Human Binding - pIC50 B2 (converted)
Square brackets hold non-standard residues; d marks the D form. Peptide text beside a SMILES is read from it. * marks the point of attachment. Oic = O=C(O)[C@@H]1C[C@@H]2CCCC[C@@H]2N1; X1 = N=C(N)NCCC[C@@H](NC(=N)N)C(=O)*; dIgl = N[C@@H](C(=O)O)C1Cc2ccccc2C1; Gly(cPent) = N[C@H](C(=O)O)C1CCCC1; Igl = N[C@H](C(=O)O)C1Cc2ccccc2C1; Hyp = O=C(O)[C@@H]1C[C@@H](O)CN1; dTic = O=C(O)[C@H]1Cc2ccccc2CN1; 2Thi = N[C@@H](Cc1cccs1)C(=O)O
Catalogue of IC50 values
quantityName: IC50 (nM)

molecule="CC(C)C[C@H](NC(=O)[C@H](NC(=O)[C@H](CO)NC(=O)[C@@H](NC(=O)CNC(=O)[C@@H]1C[C@@H](O)CN1C(=O)[C@@H]1CCCN1C(=O)[C@H](CCCNC(=N)N)NC(=O)[C@H](N)CCCNC(=N)N)C1Cc2ccccc2C1)C1Cc2ccccc2C1)C(=O)O [B9816, DArg-Arg-Pro-Hyp-Gly-Igl-Ser-DIgl-Leu] (H-[dR]RP[Hyp]G[Igl]S[dIgl]L-OH)" quantityname=IC50 datavalue=631
molecule="N=C(N)NCCC[C@H](NC(=O)[C@@H](CCCNC(=N)N)NC(=N)N)C(=O)N1CCC[C@H]1C(=O)N1C[C@H](O)C[C@H]1C(=O)NCC(=O)N[C@@H](Cc1cccs1)C(=O)N[C@@H](CO)C(=O)N[C@@H](C(=O)N1[C@H](C(=O)O)C[C@@H]2CCCC[C@@H]21)C1Cc2ccccc2C1 [B9826] (X1-RP[Hyp]G[2Thi]S[dIgl][Oic]-OH)" quantityname=IC50 datavalue=7.94
molecule="N=C(N)NCCC[C@@H](N)C(=O)N[C@@H](CCCNC(=N)N)C(=O)N1CCC[C@H]1C(=O)N1C[C@H](O)C[C@H]1C(=O)NCC(=O)N[C@@H](Cc1cccs1)C(=O)N[C@@H](CO)C(=O)N1Cc2ccccc2C[C@@H]1C(=O)N[C@H](C(=O)O)C1CCCC1 [B9068, DArg-Arg-Pro-Hyp-Gly-Thi-Ser-DTic-Cpg] (H-[dR]RP[Hyp]G[2Thi]S[dTic][Gly(cPent)]-OH)" quantityname=IC50 datavalue=2000
